Listed here are compounds together with their documented pKi.
assayed.target: human D1 receptors (Homo sapiens, UniProt P21728)
Construct: expressed in transfected cells; host or cells: Ltk- cells (mouse fibroblasts); membrane preparation
Sequence (P21728 whole entry): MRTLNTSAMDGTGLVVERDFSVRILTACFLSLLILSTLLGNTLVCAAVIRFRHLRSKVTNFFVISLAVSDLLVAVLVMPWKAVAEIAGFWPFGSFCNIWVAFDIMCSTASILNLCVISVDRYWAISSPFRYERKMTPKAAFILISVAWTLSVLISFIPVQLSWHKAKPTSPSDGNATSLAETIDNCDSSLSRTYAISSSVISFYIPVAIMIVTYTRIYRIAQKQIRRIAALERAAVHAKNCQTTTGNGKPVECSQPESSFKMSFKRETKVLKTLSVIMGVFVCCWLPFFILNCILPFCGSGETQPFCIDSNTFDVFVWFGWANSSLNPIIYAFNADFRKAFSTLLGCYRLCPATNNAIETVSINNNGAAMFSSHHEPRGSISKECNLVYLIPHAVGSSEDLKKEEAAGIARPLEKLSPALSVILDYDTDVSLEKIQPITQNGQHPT
method.notes: Radioligand binding competition assay at D1 receptor
run.parameters: class by Ki (D1) and selectivity (Ki D2 / Ki D1); human D1 and D2 (long variant) receptors, Ltk- cell membranes; read-out: D1 binding and D2:D1 Selectivity
pKi: −log10 of the molar value.

Record excerpt, results attached:
CC(=O)N(Cc1ccc(C2CN(C)CCc3cc(Cl)c(O)cc32)cc1)C1CCC1 (stereo not drawn); > 8.30
CN1CCc2cc(Cl)c(O)cc2[C@H]2c3ccc(NS(C)(=O)=O)cc3CC[C@@H]21; > 8.30
CN1CCc2cc(Cl)c(O)cc2[C@H]2c3ccc(NCc4ccccc4)cc3CC[C@@H]21; > 8.30
CN1CCc2cc(Cl)c(O)cc2[C@H]2c3cccc(-c4ncc[nH]4)c3CC[C@@H]21 [25c]; > 8.30
CN(C)Cc1cccc2c1CC[C@H]1[C@H]2c2cc(O)c(Cl)cc2CCN1C; > 8.30

Task item: // output pKi; input `CC(=O)N(Cc1ccc([C@H]2CNCCc3cc(Cl)c(O)cc32)cc1)C1CCC1` ; system human D1 receptors (Homo sapiens, UniProt P21728)
Reply: > 8.00

Task item: // output pKi; input `CN1CCc2cc(Cl)c(O)cc2[C@H]2c3cc(CNc4cccnc4)ccc3CC[C@@H]21` ; system human D1 receptors (Homo sapiens, UniProt P21728)
Reply: > 7.00

Task item: // output pKi; input CNC(=O)c1cccc2c1CCC1C2c2cc(O)c(Cl)cc2CCN1C (stereo not drawn) ; system human D1 receptors (Homo sapiens, UniProt P21728)
Reply: > 8.30

Task item: // output pKi; input CN1CCc2cc(Cl)c(O)cc2C(c2ccc(NS(=O)(=O)c3ccccc3)cc2)C1 (stereo not drawn) ; system human D1 receptors (Homo sapiens, UniProt P21728)
Reply: > 8.00
